Catalogue of pIC50 readings, one per entry.
- target_entity: AR-VP16 (Homo sapiens, UniProt P10275)
- Sequence (P10275 560-920 limits assumed): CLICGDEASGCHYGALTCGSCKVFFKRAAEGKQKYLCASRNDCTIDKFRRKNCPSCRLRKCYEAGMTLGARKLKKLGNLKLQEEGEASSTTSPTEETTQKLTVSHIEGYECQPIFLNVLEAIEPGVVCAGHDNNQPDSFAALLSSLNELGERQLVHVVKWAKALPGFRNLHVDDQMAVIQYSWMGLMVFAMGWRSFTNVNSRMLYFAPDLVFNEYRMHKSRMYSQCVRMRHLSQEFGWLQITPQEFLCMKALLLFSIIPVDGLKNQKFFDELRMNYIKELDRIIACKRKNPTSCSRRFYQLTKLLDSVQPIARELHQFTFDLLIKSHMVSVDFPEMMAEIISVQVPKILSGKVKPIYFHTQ
- assay_notes: AR-VP16 DNA Binding Assay, antagonist mode (HepG2 cells, 0.1 nM R1881)
pIC50: −log10 of the molar value.
measured_parameter: pIC50

input_smiles=CNC(=O)c1ccc(N2C(=S)N(c3cnc(C#N)c(C)c3)C(=O)C23CCC3)cc1OC measured_parameter=pIC50 value_observed="> 6.00"
input_smiles=CNC(=O)c1ccc(N2C(=S)N(c3cnc(C#N)c(C)c3)C(=O)C23CCC3)c(F)c1 measured_parameter=pIC50 value_observed="> 6.00"
input_smiles=N#Cc1ncc(N2C(=O)C3(CCC3)N(c3ccc(CCCO)cc3)C2=S)cc1C(F)(F)F measured_parameter=pIC50 value_observed="> 6.00"
input_smiles=Cc1cc(N2C(=O)C3(CCC3)N(c3ccc(N(C)C4CCN(C)CC4)cc3)C2=S)cnc1C#N measured_parameter=pIC50 value_observed="< 6.00"
input_smiles=N#Cc1ncc(N2C(=O)C3(CCC3)N(c3ccc(Br)c(F)c3)C2=S)cc1C(F)(F)F measured_parameter=pIC50 value_observed="> 6.00"
input_smiles=N#Cc1ncc(N2C(=O)C3(CCC3)N(c3ccc(F)c(OCCN4CCOCC4)c3)C2=S)cc1C(F)(F)F measured_parameter=pIC50 value_observed="< 6.00"
input_smiles=N#Cc1ncc(N2C(=O)C3(CCC3)N(c3ccc(Oc4cccnc4)cc3)C2=S)cc1C(F)(F)F measured_parameter=pIC50 value_observed="> 6.00"
input_smiles=Cc1cc(N2C(=O)C3(CCC3)N(c3ccc(OC4CCNCC4)cc3)C2=S)cnc1C#N measured_parameter=pIC50 value_observed="< 6.00"
input_smiles=CNC(=O)c1ccc(N2C(=S)N(c3ccc(C#N)c4ccccc34)C(=O)C23CCC3)cc1F measured_parameter=pIC50 value_observed="> 6.00"
input_smiles=O=C1N(c2ccc3nnc(C(F)(F)F)n3n2)C(=S)N(c2ccc(OCCc3ccccn3)cc2)C12CCC2 measured_parameter=pIC50 value_observed="< 6.00"
input_smiles=CNC(=O)c1ccc(N2C(=S)N(c3cnc(C#N)c(C(F)(F)F)c3)C(=O)C23CCC3)c(F)c1 measured_parameter=pIC50 value_observed="> 6.00"
input_smiles=N#Cc1cccc(N2C(=S)N(c3cnc(C#N)c(C(F)(F)F)c3)C(=O)C23CCC3)c1 measured_parameter=pIC50 value_observed="> 6.00"
input_smiles=CN1CCN(CCOc2ccc(N3C(=S)N(c4cnc(C#N)c(C(F)(F)F)c4)C(=O)C34CCC4)cc2F)CC1 measured_parameter=pIC50 value_observed="> 6.00"
input_smiles=N#Cc1ccc(N2C(=S)N(c3cnc(C#N)c(C(F)(F)F)c3)C(=O)C23CCC3)cc1 measured_parameter=pIC50 value_observed="> 6.00"
input_smiles=CN1CCN(CCCOc2ccc(N3C(=S)N(c4cnc(C#N)c(C(F)(F)F)c4)C(=O)C34CCC4)cc2F)CC1 measured_parameter=pIC50 value_observed="> 6.00"
input_smiles=CCN1CCC(Oc2ccc(N3C(=S)N(c4cnc(C#N)c(C)c4)C(=O)C34CCC4)cc2)CC1 measured_parameter=pIC50 value_observed="< 6.00"
input_smiles=CNC(=O)c1ccc(N2C(=S)N(c3cnc(C#N)c(C)c3)C(=O)C23CCC3)cc1C(F)(F)F measured_parameter=pIC50 value_observed="> 6.00"
input_smiles=Cc1cc(N2C(=O)C3(CCC3)N(c3ccc(OC4CCN(C)CC4)cc3)C2=S)cnc1C#N measured_parameter=pIC50 value_observed="< 6.00"
input_smiles=N#Cc1ncc(N2C(=O)C3(CCC3)N(c3ccc(Oc4ccncn4)cc3)C2=S)cc1C(F)(F)F measured_parameter=pIC50 value_observed="> 6.00"
input_smiles=N#Cc1ncc(N2C(=O)C3(CCC3)N(c3ccc4[nH]ncc4c3)C2=S)cc1C(F)(F)F measured_parameter=pIC50 value_observed="> 6.00"
input_smiles=CS(=O)(=O)c1ccc(N2C(=S)N(c3cnc(C#N)c(C(F)(F)F)c3)C(=O)C23CCC3)cc1 measured_parameter=pIC50 value_observed="> 6.00"
input_smiles=CNC(=O)c1ccc(N2C(=S)N(c3ccc(C#N)n4nccc34)C(=O)C23CCC3)cc1F measured_parameter=pIC50 value_observed="< 6.00"
input_smiles=Cc1ccc(-c2ccc(N3C(=S)N(c4cnc(C#N)c(C)c4)C(=O)C34CCC4)cc2)cn1 measured_parameter=pIC50 value_observed="> 6.00"
input_smiles=N#Cc1ncc(N2C(=O)C3(CCC3)N(c3ccc(O)c(F)c3)C2=S)cc1C(F)(F)F measured_parameter=pIC50 value_observed="> 6.00"
input_smiles=N#Cc1ncc(N2C(=O)C3(CCC3)N(c3ccccc3)C2=S)cc1C(F)(F)F measured_parameter=pIC50 value_observed="> 6.00"
input_smiles=Cc1cc(N2C(=O)C3(CCC3)N(c3ccc(C(=O)NCc4ccc(F)cc4)c(F)c3)C2=S)cnc1C#N measured_parameter=pIC50 value_observed="> 6.00"
input_smiles=COCCCNC(=O)c1ccc(N2C(=S)N(c3cnc(C#N)c(C(F)(F)F)c3)C(=O)C23CCC3)cc1F measured_parameter=pIC50 value_observed="> 6.00"
input_smiles=N#Cc1ncc(N2C(=O)C3(CCC3)N(c3ccc(CCCC(=O)O)cc3)C2=S)cc1C(F)(F)F measured_parameter=pIC50 value_observed="< 6.00"
input_smiles=N#Cc1ncc(N2C(=O)C3(CCC3)N(c3cc(F)ccc3F)C2=S)cc1C(F)(F)F measured_parameter=pIC50 value_observed="> 6.00"
input_smiles=CNC(=O)c1ccc(N2C(=S)N(c3cnc(C#N)c(C)c3)C(=O)C23CCCC3)cc1F measured_parameter=pIC50 value_observed="> 6.00"
